Target: human S1P1 Receptor fused to the green fluorescent protein (EGFP) (Homo sapiens, UniProt P21453)
Sequence (P21453 with tags, fused parts or gaps): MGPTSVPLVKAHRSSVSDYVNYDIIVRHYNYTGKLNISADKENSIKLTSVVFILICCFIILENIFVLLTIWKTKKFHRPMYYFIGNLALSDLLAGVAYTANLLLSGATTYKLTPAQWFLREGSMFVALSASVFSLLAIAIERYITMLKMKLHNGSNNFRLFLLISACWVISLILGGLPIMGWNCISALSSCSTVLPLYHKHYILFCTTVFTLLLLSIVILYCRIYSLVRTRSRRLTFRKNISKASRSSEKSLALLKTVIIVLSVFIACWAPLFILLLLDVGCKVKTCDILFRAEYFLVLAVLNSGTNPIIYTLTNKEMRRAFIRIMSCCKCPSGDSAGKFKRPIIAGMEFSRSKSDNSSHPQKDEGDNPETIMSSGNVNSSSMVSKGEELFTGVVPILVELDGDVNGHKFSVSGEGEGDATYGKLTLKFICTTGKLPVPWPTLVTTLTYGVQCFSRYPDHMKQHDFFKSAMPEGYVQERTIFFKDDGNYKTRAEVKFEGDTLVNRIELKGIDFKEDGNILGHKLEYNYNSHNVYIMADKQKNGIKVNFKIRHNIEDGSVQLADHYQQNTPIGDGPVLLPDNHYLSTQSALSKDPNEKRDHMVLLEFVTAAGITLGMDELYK
Assay: Internalization of S1P1 in S1P1-U2OS cells by cell imaging analysis
Conditions: 1 hour incubation, 384-well
pEC50: −log10 of the molar value. Counter-ions that a name gives are not always drawn.
Recorded pEC50, one value per entry.
Recorded Endpoint: pEC50

{"columns": ["Compound", "Recorded Endpoint", "Measured Value"],
 "data": [
  ["COCc1cc(-c2nc(-c3cnc(N[C@H]4CCC[C@H]4C(=O)O)c(Cl)c3)no2)ccc1-c1ccccc1C (relative stereo)", "pEC50", 6.37],
  ["COCc1cc(-c2nc(-c3cnc(N)c(C)c3)no2)ccc1-c1ccccc1Cl", "pEC50", 7.43],
  ["COCc1cc(-c2nc(-c3cnc(N)c(C)c3)no2)ccc1-c1ccccc1F", "pEC50", 7.23],
  ["CCOc1cc(-c2nc(-c3cnc(NCCC(=O)O)c(Cl)c3)no2)ccc1-c1ccccc1C [Example 65, hydrochloride salt]", "pEC50", 7.79]
]}

* * *

Recorded pEC50, one value per entry.
Molecular target: S1P1 (Homo sapiens, UniProt P21453)
Sequence (P21453 whole entry, species assumed): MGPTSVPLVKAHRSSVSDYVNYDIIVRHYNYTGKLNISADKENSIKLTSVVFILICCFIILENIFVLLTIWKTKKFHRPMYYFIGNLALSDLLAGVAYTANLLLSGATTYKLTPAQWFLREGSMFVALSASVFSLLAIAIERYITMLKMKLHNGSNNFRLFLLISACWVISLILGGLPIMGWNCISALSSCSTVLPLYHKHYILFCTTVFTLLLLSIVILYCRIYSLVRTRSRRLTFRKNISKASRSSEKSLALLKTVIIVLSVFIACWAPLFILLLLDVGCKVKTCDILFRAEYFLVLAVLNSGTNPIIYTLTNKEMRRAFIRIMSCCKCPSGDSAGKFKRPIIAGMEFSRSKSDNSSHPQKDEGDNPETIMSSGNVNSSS
Assay: 35S-GTPγS binding assay, S1P1 membranes
Conditions: membranes from CHO cells expressing S1P1; read-out: S1P1/GTPG EC50
pEC50: −log10 of the molar value. Structures can show the parent of a compound that is named as a salt.
Recorded Endpoint: pEC50

{"columns": ["Compound", "Recorded Endpoint", "Measured Value"],
 "data": [
  ["COCc1cc(-c2nc(-c3ccnc(NCC(=O)OC(C)(C)C)c3)no2)ccc1-c1ccccc1C [Example 10]", "pEC50", 6.85],
  ["COCc1cc(-c2nc(-c3ccc(NCCC(=O)O)nc3)no2)ccc1-c1ccccc1C [Example 2, hydrochloride salt]", "pEC50", 7.68],
  ["COCc1cc(-c2nc(-c3ccc(NC(C)=O)nc3)no2)ccc1-c1ccccc1C [Example 5, hydrochloride salt]", "pEC50", 7.84],
  ["COCc1cc(-c2nc(-c3ccnc(N(C)C)c3)no2)ccc1-c1ccccc1C [Example 6, hydrochloride salt]", "pEC50", 6.84],
  ["COCc1cc(-c2nc(-c3ccc(NCCC(=O)OC(C)(C)C)nc3)no2)ccc1-c1ccccc1C [Example 1]", "pEC50", 6.87],
  ["COCc1cc(-c2nc(-c3ccc(C(N)=O)nc3)no2)ccc1-c1ccccc1C [Example 26]", "pEC50", 7.34],
  ["COCc1cc(-c2nc(-c3ccc(NCCCC(=O)O)nc3)no2)ccc1-c1ccccc1C [Example 8, hydrochloride salt]", "pEC50", 8.00],
  ["COCc1cc(-c2nc(-c3ccc(O)nc3)no2)ccc1-c1ccccc1C [Example 21]", "pEC50", 8.40],
  ["COCc1cc(-c2nc(-c3ccnc(NCC(=O)O)c3)no2)ccc1-c1ccccc1C [Example 11, hydrochloride salt]", "pEC50", 7.65],
  ["COCc1cc(-c2nc(-c3ccc(NCC(=O)O)nc3)no2)ccc1-c1ccccc1C [Example 3, hydrochloride salt]", "pEC50", 6.88],
  ["COCc1cc(-c2nc(-c3ccc(N4CCCC4)nc3)no2)ccc1-c1ccccc1C [Example 31]", "pEC50", 6.06],
  ["CNc1ccc(-c2noc(-c3ccc(-c4ccccc4C)c(COC)c3)n2)cn1 [Example 29]", "pEC50", 7.36]
]}

* * *

Target: S1P1 (Homo sapiens)
Assay: Receptor binding assay, [33P]sphingosine 1-phosphate competition, S1P1
Conditions: 384 well-plate; read-out: S1P1 binding IC50 (M) (384 well-plate)
Counter-ions that a name gives are not always drawn.
Recorded IC50, one value per entry.
Recorded Endpoint: IC50 (M)

{"columns": ["Compound", "Recorded Endpoint", "Units", "Measured Value"],
 "data": [
  ["CC1CCCCN1c1ccc(-c2nc(-c3ccnc(CN(C)CC(=O)O)c3)no2)cc1C(F)(F)F (centres unmarked) [Example 66]", "IC50", "M", "8.68e-09"],
  ["COCc1cc(-c2nc(-c3ccc(NCCO)nc3)no2)ccc1-c1ccccc1Cl [Example 49]", "IC50", "M", "2.4e-08"],
  ["COCc1cc(-c2nc(-c3cnc(NCCC(=O)O)c(Cl)c3)no2)ccc1-c1ccccc1Cl [Example 50, hydrochloride salt]", "IC50", "M", "1.98e-08"],
  ["COCc1cc(-c2nc(-c3ccnc(CN(C)CC(=O)O)c3)no2)ccc1-c1ccccc1C [Example 68]", "IC50", "M", "1.18e-08"],
  ["COCc1cc(-c2nc(-c3cnc(N)c(Cl)c3)no2)ccc1-c1ccccc1F [Example 46]", "IC50", "M", "4.42e-08"],
  ["Cc1ccccc1-c1ccc(-c2nc(-c3ccc(CN(C)CC(=O)O)nc3)no2)cc1C(F)(F)F [Example 74]", "IC50", "M", "7.83e-09"],
  ["COCc1cc(-c2nc(-c3ccc(NCC(O)CO)nc3)no2)ccc1-c1ccccc1C (centres unmarked) [Example 45, hydrochloride salt]", "IC50", "M", "1.4e-08"],
  ["COCCCNc1ncc(-c2noc(-c3ccc(-c4ccccc4C)c(COC)c3)n2)cc1Cl [Example 82]", "IC50", "M", "4.56e-08"]
]}

* * *

Molecular target: S1P1 (Homo sapiens)
Test: Receptor binding assay, [33P]sphingosine 1-phosphate competition, S1P1
Details: 384 well-plate; read-out: S1P1 binding IC50 (M) (384 well-plate)
Counter-ions that a name gives are not always drawn.

{"columns": ["Compound", "IC50, M"],
 "data": [
  ["COCc1cc(-c2nc(-c3ccc(N)nc3)no2)ccc1-c1ccccc1C [Example 4, hydrochloride salt]", "3.2e-08"],
  ["Cc1ccccc1-c1ccc(-c2nc(-c3cnc(NCCC(=O)O)c(Cl)c3)no2)cc1C [Example 73, hydrochloride salt]", "1.47e-08"],
  ["CCOc1cc(-c2nc(-c3cnc(NCCC(=O)O)c(Cl)c3)no2)ccc1-c1ccccc1C(F)(F)F [Example 71, hydrochloride salt]", "3.4e-09"],
  ["O=C(O)CCNc1ncc(-c2noc(-c3ccc(-c4ccccc4F)c(C(F)(F)F)c3)n2)cc1Cl", "1.73e-08"],
  ["COCc1cc(-c2nc(-c3ccc(CN(C)CC(=O)O)nc3)no2)ccc1-c1ccccc1C", "3.5e-09"],
  ["COCc1cc(-c2nc(-c3cnc(Cl)c(F)c3)no2)ccc1-c1ccccc1C", "4.34e-09"],
  ["COCc1cc(-c2nc(-c3cnc(NCCC(=O)O)c(C)c3)no2)ccc1-c1ccccc1C [Example 58, hydrochloride salt]", "2.48e-08"]
]}

* * *

Molecular target: S1P1 (Homo sapiens)
Experiment: Receptor binding assay, [33P]sphingosine 1-phosphate competition, S1P1
Conditions: 384 well-plate; read-out: S1P1 binding IC50 (M) (384 well-plate)
Counter-ions that a name gives are not always drawn.
Recorded Endpoint: IC50 (M)

{"columns": ["Compound", "Test System", "Measured Value"],
 "data": [
  ["Cc1cc(-c2nc(-c3cnc(NCCC(=O)O)c(Cl)c3)no2)ccc1-c1ccccc1C(F)(F)F [Example 70, hydrochloride salt]", "S1P1 (Homo sapiens)", "1.72e-08"],
  ["COCc1cc(-c2nc(-c3ccc(NCC(C)O)nc3)no2)ccc1-c1ccccc1C (stereo not shown)", "S1P1 (Homo sapiens)", "3.03e-08"],
  ["COCc1cc(-c2nc(-c3cnc(NCCCC(=O)O)c(Cl)c3)no2)ccc1-c1ccccc1C [Example 56, hydrochloride salt]", "S1P1 (Homo sapiens)", "4.77e-09"],
  ["CCc1ccccc1-c1ccc(-c2nc(-c3cnc(N)c(Cl)c3)no2)cc1COC", "S1P1 (Homo sapiens)", "4.1e-08"]
]}

* * *

Biological target: S1P3 (Homo sapiens)
Sequence (Q99500 whole entry, species assumed): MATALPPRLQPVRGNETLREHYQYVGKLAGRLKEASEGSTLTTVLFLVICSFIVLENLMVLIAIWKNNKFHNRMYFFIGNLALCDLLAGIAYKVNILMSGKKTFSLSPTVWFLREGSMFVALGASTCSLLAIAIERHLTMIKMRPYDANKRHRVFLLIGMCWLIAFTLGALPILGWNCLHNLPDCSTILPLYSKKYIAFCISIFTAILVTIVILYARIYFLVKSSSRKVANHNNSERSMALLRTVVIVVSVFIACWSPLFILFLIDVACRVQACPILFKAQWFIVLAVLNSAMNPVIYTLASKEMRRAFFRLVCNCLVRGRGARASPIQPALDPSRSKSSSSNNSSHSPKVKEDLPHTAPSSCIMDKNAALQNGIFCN
Assay: Receptor binding assay, [33P]sphingosine 1-phosphate competition, S1P3
Conditions: 384 well-plate; read-out: S1P3 binding IC50 (M) (384 well-plate)
Structures can show the parent of a compound that is named as a salt.
Recorded Endpoint: log10 IC50 (log10 of the value in M)

{"columns": ["Molecule", "log10 IC50"],
 "data": [
  ["CCOc1cc(-c2nc(-c3cnc(NCCC(=O)O)c(Cl)c3)no2)ccc1-c1ccccc1C [Example 65, hydrochloride salt]", -5.62],
  ["COCc1cc(-c2nc(-c3ccc(NCCCCO)nc3)no2)ccc1-c1ccccc1C [Example 51, hydrochloride salt]", -4.70],
  ["Cc1ccccc1-c1ccc(-c2nc(-c3ccnc(CN(C)CC(=O)O)c3)no2)cc1C(F)(F)F [Example 75]", -5.65],
  ["COCc1cc(-c2nc(-c3cnc(NCCCC(=O)O)c(Cl)c3)no2)ccc1-c1ccccc1C [Example 56, hydrochloride salt]", -5.77],
  ["CCOc1cc(-c2nc(-c3cnc(NCCC(=O)O)c(Cl)c3)no2)ccc1-c1ccccc1C(F)(F)F [Example 71, hydrochloride salt]", -5.05],
  ["COCc1cc(-c2nc(-c3ccc(CN(C)CC(=O)O)nc3)no2)ccc1-c1ccccc1C [Example 78]", -5.61],
  ["COCc1cc(-c2nc(-c3ccc(N)nc3)no2)ccc1-c1ccccc1C [Example 4, hydrochloride salt]", -5.11]
]}
